inhibition for assorted compounds
- System tested: Serine/threonine-protein kinase PAK 6 (Homo sapiens) (UniProt Q9NQU5);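 further: mean PAK6 inhibition reported from the GSK PKIS screen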
- Sequence (Q9NQU5 whole entry, looked up): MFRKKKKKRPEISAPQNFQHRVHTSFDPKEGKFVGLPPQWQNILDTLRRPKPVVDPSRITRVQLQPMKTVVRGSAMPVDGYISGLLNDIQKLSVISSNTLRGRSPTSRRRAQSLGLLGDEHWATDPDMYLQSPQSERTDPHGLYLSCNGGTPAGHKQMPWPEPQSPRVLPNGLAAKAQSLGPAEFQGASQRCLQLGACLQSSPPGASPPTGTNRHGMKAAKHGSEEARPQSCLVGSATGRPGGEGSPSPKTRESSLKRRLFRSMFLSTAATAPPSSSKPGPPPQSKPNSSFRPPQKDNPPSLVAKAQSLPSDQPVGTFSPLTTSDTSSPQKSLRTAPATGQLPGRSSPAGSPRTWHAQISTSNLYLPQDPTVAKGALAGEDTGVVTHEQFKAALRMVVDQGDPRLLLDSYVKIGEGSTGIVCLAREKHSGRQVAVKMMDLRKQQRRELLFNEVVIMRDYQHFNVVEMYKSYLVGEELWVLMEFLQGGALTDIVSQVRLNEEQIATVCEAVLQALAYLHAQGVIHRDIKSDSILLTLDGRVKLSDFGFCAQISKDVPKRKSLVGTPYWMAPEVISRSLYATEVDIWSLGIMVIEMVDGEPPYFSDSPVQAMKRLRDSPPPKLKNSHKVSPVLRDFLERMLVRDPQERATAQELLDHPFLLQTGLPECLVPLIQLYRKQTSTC
- Recorded conditions: at 0.1 µM
Use % as the unit, but write only the number.

Example cases with answers are listed next.
inhibition for CN(C)C(=O)O[C@H]1CN[C@H](C#Cc2cc3ncnc(Nc4ccc(OCc5cccc(F)c5)c(Cl)c4)c3s2)C1 is 9.3

Notebook: Nc1nccc(-c2c(-c3ccc(F)cc3)ncn2CCCN2CCOCC2)n1 , inhibition read as -1.31

Entry NS(=O)(=O)c1cccc(Nc2cc(-c3ccc(F)cc3)n[nH]2)c1 ; inhibition = 2.82

Others:
The value of inhibition measured for the compound C[C@@H](Oc1cc(-n2cnc3ccc(OC[C@@H](O)CO)cc32)sc1C(N)=O)c1ccccc1Cl turned out to be -7.41

inhibition reading for Cc1ccc(O)cc1Nc1ccnc2ccc(S(C)(=O)=O)cc12 : -3.21

Input O=C(Nc1ccc(Oc2ccc3[nH]c(NC(=O)c4ccco4)nc3c2)cc1)Nc1cc(C(F)(F)F)ccc1F . Output inhibition: 2.79

inhibition measured on NS(=O)(=O)c1ccc(Nc2cc(-c3cccc(O)c3)n[nH]2)cc1 = -0.89

Input O=C1Nc2ccccc2/C1=C/Nc1ccc2[nH]c(=O)[nH]c2c1 . Output inhibition: -6.58

* * *

- System tested: Homeodomain-interacting protein kinase 4 (Homo sapiens) (UniProt Q8NE63);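 further: values are mean percent inhibition of HIPK4 from the GSK PKIS kinase screen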
- Sequence (whole entry): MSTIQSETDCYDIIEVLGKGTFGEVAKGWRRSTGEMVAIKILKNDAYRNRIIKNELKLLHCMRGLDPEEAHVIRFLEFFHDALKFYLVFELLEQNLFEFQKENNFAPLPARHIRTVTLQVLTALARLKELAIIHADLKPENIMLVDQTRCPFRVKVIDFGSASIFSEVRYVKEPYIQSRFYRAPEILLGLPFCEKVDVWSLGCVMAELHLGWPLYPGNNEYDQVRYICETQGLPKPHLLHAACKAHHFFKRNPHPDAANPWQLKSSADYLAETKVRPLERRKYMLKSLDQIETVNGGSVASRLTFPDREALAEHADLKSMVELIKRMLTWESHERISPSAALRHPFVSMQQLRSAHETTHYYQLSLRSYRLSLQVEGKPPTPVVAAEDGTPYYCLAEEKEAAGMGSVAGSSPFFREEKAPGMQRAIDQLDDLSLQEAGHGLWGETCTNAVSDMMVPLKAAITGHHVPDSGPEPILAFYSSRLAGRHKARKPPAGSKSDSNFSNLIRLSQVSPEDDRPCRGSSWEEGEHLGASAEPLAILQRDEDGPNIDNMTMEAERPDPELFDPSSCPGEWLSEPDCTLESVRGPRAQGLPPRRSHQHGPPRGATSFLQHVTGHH
- Recorded conditions: at 1 µM
Reported inhibition values follow for various molecules
Report only the number, with the unit % understood.

Below, 5 molecules whose answers are already recorded.
Entry Nc1nccc(C#Cc2cncnc2Nc2ccc(OCc3cccc(F)c3)c(Cl)c2)n1 , tested on Homeodomain-interacting protein kinase 4 (Homo sapiens) (UniProt Q8NE63), has a reported inhibition of 8.43

Record for COc1cc2ncnc(Nc3ccc(C)c(O)c3)c2cc1OC under target or system Homeodomain-interacting protein kinase 4 (Homo sapiens) (UniProt Q8NE63): inhibition reported as 9.35

Query NS(=O)(=O)c1ccc(NC=C2C(=O)Nc3ccc4ncsc4c32)cc1 on Homeodomain-interacting protein kinase 4 (Homo sapiens) (UniProt Q8NE63); inhibition returned: 21.7

Given the molecule COc1cc2ncnc(Nc3ccc4c(cnn4Cc4ccccc4)c3)c2cc1OC and test system Homeodomain-interacting protein kinase 4 (Homo sapiens) (UniProt Q8NE63), the measured inhibition is 0.79

Observed inhibition, Homeodomain-interacting protein kinase 4 (Homo sapiens) (UniProt Q8NE63), Cc1cc(O)cc(C)c1/C=C/c1cncc(C(=O)N(C)C)c1 : 7.94

Pending molecule:
inhibition for Homeodomain-interacting protein kinase 4 (Homo sapiens) (UniProt Q8NE63) with input C[C@@H](Oc1cc(-n2cnc3ccc(OC[C@@H](O)CO)cc32)sc1C(N)=O)c1ccccc1Cl equals 9.28

* * *

- System tested: Serine/threonine-protein kinase D2 (Homo sapiens);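 further: reported percent inhibition values are means, part of the GSK PKIS kinase panel screen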
- Sequence (whole entry): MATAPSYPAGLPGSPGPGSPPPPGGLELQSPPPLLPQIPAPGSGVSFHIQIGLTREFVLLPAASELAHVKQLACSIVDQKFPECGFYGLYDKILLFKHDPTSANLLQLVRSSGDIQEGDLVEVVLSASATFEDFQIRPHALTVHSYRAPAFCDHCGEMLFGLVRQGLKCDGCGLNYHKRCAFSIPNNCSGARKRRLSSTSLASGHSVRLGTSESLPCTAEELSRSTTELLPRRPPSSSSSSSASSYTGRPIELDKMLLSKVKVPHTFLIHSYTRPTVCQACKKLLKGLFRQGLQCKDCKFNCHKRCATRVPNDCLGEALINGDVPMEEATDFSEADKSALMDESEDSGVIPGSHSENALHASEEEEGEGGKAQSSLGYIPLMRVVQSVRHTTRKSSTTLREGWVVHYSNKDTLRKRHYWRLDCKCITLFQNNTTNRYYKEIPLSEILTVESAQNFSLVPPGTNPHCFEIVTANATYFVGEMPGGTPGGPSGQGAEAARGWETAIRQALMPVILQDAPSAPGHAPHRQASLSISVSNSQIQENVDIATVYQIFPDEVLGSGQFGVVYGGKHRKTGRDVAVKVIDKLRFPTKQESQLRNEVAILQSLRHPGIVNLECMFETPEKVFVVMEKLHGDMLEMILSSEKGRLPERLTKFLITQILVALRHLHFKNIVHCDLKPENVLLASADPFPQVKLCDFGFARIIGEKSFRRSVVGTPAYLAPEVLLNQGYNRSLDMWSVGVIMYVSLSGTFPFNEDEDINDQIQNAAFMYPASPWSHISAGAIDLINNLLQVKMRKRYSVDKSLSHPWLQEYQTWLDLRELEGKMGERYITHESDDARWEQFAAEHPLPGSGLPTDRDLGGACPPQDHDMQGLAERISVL
- Recorded conditions: at 0.1 µM
Metric: inhibition (%)
Numeric answer only, unit % assumed.

Worked examples follow.
For NS(=O)(=O)c1cccc(-c2cc3ccncc3cc2OCc2ccccc2)c1 the molecule record lists inhibition as 5.29

Cc1cc(-c2ccccn2)cc(C)c1/C=C/c1cncc(-c2nn[nH]n2)c1 yielded inhibition of 6.87

// inhibition lookup, molecule = CCOc1nccc2c1nc(-c1nonc1N)n2CC , result: 1.9

Reported inhibition of CCn1c(-c2nonc2N)nc2c(C#CC(C)(C)O)nc(OCCNC)cc21 : 4.9

Lab book: inhibition of N#Cc1cccc(Nc2nccc(-c3cnn4ncccc34)n2)c1 noted as 7.36

Value of inhibition reported for the molecule NS(=O)(=O)c1ccc(-c2cc3ccncc3cc2OCc2ccccc2)cc1 is 2.47

***
Field inhibition (entry NS(=O)(=O)c1ccc(Nc2cc(-c3cccc(O)c3)n[nH]2)cc1 ) reads 5.45

inhibition reading for Cc1ccc(NC(=O)CC2CC2)cc1-c1ccc(C(=O)NCC2CC2)cc1 : 2.89

Looking up Cc1ccc2c(-c3ccnc(Nc4ccc5c(c4)OCCO5)n3)c(-c3ccc(C(F)(F)F)cc3)nn2n1 , I found its inhibition recorded as 2.13

inhibition for Cc1ccc2c(c1)/C(=N/Nc1ccc(S(N)(=O)=O)cc1)C(=O)N2 is 1.62

Sample COc1cc2ncnc(Nc3ccc4c(cnn4Cc4ccccc4)c3)c2cc1OC ; inhibition observed: 2.96

* * *

- Test system: Mast/stem cell growth factor receptor Kit (Homo sapiens), P10721 [T670I]
- Sequence (P10721 whole entry T670I): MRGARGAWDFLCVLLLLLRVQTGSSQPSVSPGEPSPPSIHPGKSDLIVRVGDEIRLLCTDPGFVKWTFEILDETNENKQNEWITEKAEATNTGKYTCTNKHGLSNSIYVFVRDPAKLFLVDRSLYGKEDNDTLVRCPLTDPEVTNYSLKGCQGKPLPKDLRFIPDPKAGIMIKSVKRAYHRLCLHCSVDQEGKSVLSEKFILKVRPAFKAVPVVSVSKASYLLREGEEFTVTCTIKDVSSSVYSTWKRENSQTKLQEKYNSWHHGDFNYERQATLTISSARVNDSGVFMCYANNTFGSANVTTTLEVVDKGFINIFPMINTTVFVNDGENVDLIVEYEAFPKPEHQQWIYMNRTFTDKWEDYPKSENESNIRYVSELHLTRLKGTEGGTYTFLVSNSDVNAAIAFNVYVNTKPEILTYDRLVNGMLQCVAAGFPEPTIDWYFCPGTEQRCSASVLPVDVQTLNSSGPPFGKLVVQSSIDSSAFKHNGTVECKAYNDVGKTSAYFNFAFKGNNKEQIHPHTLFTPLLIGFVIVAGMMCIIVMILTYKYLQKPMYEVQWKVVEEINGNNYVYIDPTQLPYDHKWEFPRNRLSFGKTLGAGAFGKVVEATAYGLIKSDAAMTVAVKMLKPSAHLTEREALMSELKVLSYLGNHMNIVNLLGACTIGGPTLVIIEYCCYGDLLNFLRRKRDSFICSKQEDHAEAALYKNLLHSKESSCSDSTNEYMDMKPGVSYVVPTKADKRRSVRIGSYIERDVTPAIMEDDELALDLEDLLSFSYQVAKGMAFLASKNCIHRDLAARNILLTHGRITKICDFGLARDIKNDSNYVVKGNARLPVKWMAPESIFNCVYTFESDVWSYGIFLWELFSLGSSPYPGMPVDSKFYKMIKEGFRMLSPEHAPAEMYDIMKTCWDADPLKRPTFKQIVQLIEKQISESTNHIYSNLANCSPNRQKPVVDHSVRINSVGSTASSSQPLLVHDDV
- Recorded conditions: at 1 µM
Hi, to clarify the labels: True covers inhibition from 8% upward, False covers anything below 8%.

Take a look at these entries with their results.
Query: Test whether the compound CN(C)C(=O)O[C@H]1CN[C@H](C#Cc2cc3ncnc(Nc4ccc(OCc5cccc(F)c5)c(Cl)c4)c3s2)C1 records inhibition of 8% or higher.
Reply: False

Query: # check: inhibition of c1ccc(Nc2ncc(-c3ccccc3)o2)cc1 is greater than or equal to 8%
Reply: True

Query: Dear colleague, could you confirm whether COc1cccc(-n2ncc3c(N/N=C/c4ccc(S(C)(=O)=O)cc4)ncnc32)c1 has inhibition at or above 8%?
Reply: True

Query: Check the entry COc1ccc2ncnc(Nc3ccc(OCc4ccccc4)cc3)c2c1 : does inhibition equal or exceed 8%?
Reply: False

***
Query: I'd appreciate it if you could say whether CC(C)c1ccc2c(c1)NC(=O)/C2=N/Nc1ccc(S(N)(=O)=O)cc1 has inhibition at least equal to 8%.
Reply: False

* * *

- System tested: Tyrosine-protein kinase Mer (Homo sapiens) (UniProt Q12866);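 further: values are mean inhibition of human MER kinase, from the GSK PKIS profiling panel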
- Sequence (Q12866 whole entry): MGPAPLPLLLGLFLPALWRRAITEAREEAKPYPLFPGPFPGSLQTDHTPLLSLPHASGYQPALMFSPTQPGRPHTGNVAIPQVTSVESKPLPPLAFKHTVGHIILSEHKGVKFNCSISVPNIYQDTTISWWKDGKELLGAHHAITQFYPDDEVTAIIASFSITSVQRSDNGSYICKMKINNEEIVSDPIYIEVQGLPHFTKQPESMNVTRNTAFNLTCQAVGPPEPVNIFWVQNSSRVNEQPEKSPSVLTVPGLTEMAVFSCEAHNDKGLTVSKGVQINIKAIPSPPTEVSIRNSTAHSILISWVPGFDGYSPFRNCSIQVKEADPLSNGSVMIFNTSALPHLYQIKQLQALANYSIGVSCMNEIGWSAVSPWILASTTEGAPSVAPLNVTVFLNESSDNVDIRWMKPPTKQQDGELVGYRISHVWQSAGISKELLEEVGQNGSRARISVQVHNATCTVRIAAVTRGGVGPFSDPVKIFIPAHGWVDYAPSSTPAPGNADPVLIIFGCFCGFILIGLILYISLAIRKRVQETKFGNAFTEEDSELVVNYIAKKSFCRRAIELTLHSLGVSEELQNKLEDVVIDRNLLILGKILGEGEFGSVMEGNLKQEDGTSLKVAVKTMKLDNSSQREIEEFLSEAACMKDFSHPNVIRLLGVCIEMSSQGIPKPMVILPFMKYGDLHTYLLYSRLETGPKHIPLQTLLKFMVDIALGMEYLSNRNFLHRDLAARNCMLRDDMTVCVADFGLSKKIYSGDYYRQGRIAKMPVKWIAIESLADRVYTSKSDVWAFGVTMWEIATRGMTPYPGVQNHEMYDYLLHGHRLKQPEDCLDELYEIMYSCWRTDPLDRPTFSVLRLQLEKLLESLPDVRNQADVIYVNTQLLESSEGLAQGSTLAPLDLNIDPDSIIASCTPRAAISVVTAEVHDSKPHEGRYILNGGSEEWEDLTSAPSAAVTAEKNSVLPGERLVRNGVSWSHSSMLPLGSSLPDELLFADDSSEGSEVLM
- Recorded conditions: at 1 µM
Parameter: inhibition. Scope: all listed entries.
Express it in %; write the number only.

In the examples that follow, each entry is paired with its recorded inhibition.
Field inhibition (entry NC(=O)c1sc(-n2cnc3ccccc32)cc1OCc1ccccc1Br ) reads 2.98

Entry under test: COc1cc2ncnc(Nc3ccc4c(cnn4Cc4ccccc4)c3)c2cc1OC . Its inhibition was 45.5

Just so you know, measured inhibition for COC(=O)c1ccc2c(c1)C(=Cc1cc(Br)c(O)c(Br)c1)C(=O)N2 came out at 2.17

The compound listed as Cc1ccc(NC(=O)CC2CC2)cc1-c1ccc(C(=O)NCC2CC2)cc1 has a reported inhibition of 1.85

// sample COc1cc(/C=N/Nc2ncnc3c2cnn3C(C)C)ccc1O , its inhibition was 20.7

Next:
According to the records, this compound CCS(=O)(=O)c1ccc(OC)c(Nc2nccc(N(C)c3ccc4c(C)n[nH]c4c3)n2)c1 displays inhibition of 1.84

Notebook: Cc1ccc(Nc2ccnc(Nc3cccc(C(N)=O)c3)n2)cc1O , inhibition read as 11.7

Data point: C[C@@H](Oc1cc(-n2cnc3ccc(OCC4CCN(C)CC4)cc32)sc1C(N)=O)c1ccccc1C(F)(F)F ; inhibition = 6.99

Reported inhibition of Nc1ccc(C#Cc2cncnc2Nc2ccc(OCc3cccc(F)c3)c(Cl)c2)cc1 : 2.05

Entry FC(F)(F)c1ccc(-c2nn3ncccc3c2-c2ccnc(Nc3ccc4c(c3)OCCO4)n2)cc1 — recorded inhibition = 8.55
